# credit: PubChem BioAssay (NCATS)

# ASSAY_NOTES: Cellular Toxicity (caspase-3) SHSY5Y (AID 657);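 further: cells exposed to compound for 16 hours at 37 °C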; further: potency means the concentration at half of the fitted maximal effect
# DETAILS: SH-SY5Y caspase-3 activation; series mostly up to 91.7 µM
Active and inactive are the calls of the source. The call rests on the fitted dose curve; in most records, active means well fitted activation curve with a large enough effect; inconclusive means small, poorly fitted or top-dose-only effect; inactive means flat fitted curve, though single readings scatter.
REPORTED_PROPERTY: Potency

Worked cases, Potency given:
SMILES_CODE | RESULT_VALUE
COC1=CC(=O)C[C@@H](C)[C@]12Oc1c(Cl)c(OC)cc(OC)c1C2=O | inactive
COc1cccc2c1C(=O)c1c(O)c3c(c(O)c1C2=O)C[C@@](O)(C(=O)CO)C[C@@H]3O[C@H]1C[C@H](N)[C@H](O)[C@H](C)O1 | 15.8 nM (active)
CN(C)/N=N/c1nc[nH]c1C(N)=O | inactive
Nc1ccc(C(=O)O)cc1 | inactive

Query molecule follows.
Tell me Potency reported for O=c1ccc2ccccc2o1
inactive
